Experimental Parameters: human gut metagenome, 24 h, 2 µM; note: call rule not given here
Measured Endpoint: Bacterial Biotransformation

{"Compound": "CC(C)(C)NCC(O)c1cc(Cl)c(N)c(Cl)c1 (stereo not drawn)", "Bacterial Biotransformation": "Compound NOT metabolized"}
{"Compound": "CCOc1cc(CC(=O)N[C@@H](CC(C)C)c2ccccc2N2CCCCC2)ccc1C(=O)O [REPAGLINIDE]", "Bacterial Biotransformation": "Compound metabolized"}
{"Compound": "CC(C)(C)NC[C@H](O)COc1nsnc1N1CCOCC1.O=C(O)/C=C\\C(=O)O [TIMOLOL MALEATE]", "Bacterial Biotransformation": "Compound NOT metabolized"}
{"Compound": "CN1[C@@H]2CC[C@H]1C[C@@H](OC(=O)c1c[nH]c3ccccc13)C2", "Bacterial Biotransformation": "Compound NOT metabolized"}
{"Compound": "Clc1cccc(Cl)c1N=C1NCCN1", "Bacterial Biotransformation": "Compound NOT metabolized"}
{"Compound": "CC(NC(C)(C)C)C(=O)c1cccc(Cl)c1 (stereo not drawn)", "Bacterial Biotransformation": "Compound NOT metabolized"}

# lookup: Bacterial Biotransformation of "C=CC[C@@H]1/C=C(\C)C[C@H](C)C[C@H](OC)[C@H]2O[C@@](O)(C(=O)C(=O)N3CCCC[C@H]3C(=O)O[C@H](/C(C)=C/[C@@H]3CC[C@@H](O)[C@H](OC)C3)[C@H](C)[C@@H](O)CC1=O)[C@H](C)C[C@@H]2OC.O"
Compound metabolized

# lookup: Bacterial Biotransformation of "CN(C/C=C/C#CC(C)(C)C)Cc1cccc2ccccc12"
Compound NOT metabolized

# lookup: Bacterial Biotransformation of "Cc1cc2c(s1)Nc1ccccc1N=C2N1CCN(C)CC1"
Compound NOT metabolized

# lookup: Bacterial Biotransformation of Nc1nc(N)nc(-c2cc(Cl)ccc2Cl)n1.O=C(O)/C=C\C(=O)O [IRSOGLADINE MALEATE]
Compound NOT metabolized

# lookup: Bacterial Biotransformation of CC(CCc1ccccc1)NCC(O)c1ccc(O)c(C(N)=O)c1 (stereo not drawn)
Compound NOT metabolized

# lookup: Bacterial Biotransformation of CCOc1ccc2nc(S(N)(=O)=O)sc2c1 [ETHOXZOLAMIDE]
Compound NOT metabolized

# lookup: Bacterial Biotransformation of CC(C)(C)NC(=O)[C@H]1CC[C@H]2[C@@H]3CC[C@H]4NC(=O)C=C[C@]4(C)[C@H]3CC[C@]12C [FINASTERIDE]
Compound metabolized

# lookup: Bacterial Biotransformation of "O=C1CC2(CCCC2)CC(=O)N1CCCCN1CCN(c2ncccn2)CC1"
Compound NOT metabolized

# lookup: Bacterial Biotransformation of "COc1ccc([C@@H]2Sc3ccccc3N(CCN(C)C)C(=O)[C@@H]2OC(C)=O)cc1"
Compound metabolized

# lookup: Bacterial Biotransformation of "N[C@@H](Cc1ccc(N(CCCl)CCCl)cc1)C(=O)O"
Compound metabolized

# lookup: Bacterial Biotransformation of "CNCC[C@H](Oc1cccc2ccccc12)c1cccs1"
Compound NOT metabolized

# lookup: Bacterial Biotransformation of "c1ccc2[nH]c(-c3cscn3)nc2c1"
Compound NOT metabolized
